The entries below are paired with their reported INHIBITION.
- Tested on: Plasmodium berghei
- Protocol description: Screen against P. berghei liver stage (PbLuc), transformed with Luciferase, at 10uM
- Assay type: functional, HepG2
- Details: tested at 10 uM
In all, about 69,000 compounds went through this assay and about 8,600 (12%) showed an effect of 50% or more. The list comes from a sample in which strong results are over-represented; it also holds close analogues and randomly drawn compounds.
A complete answer gives the number followed by the unit.

Compound: CCn1cnnc1C1CCN(C(=O)c2cc(C)n(CC)c2C)CC1
Attribute measured: INHIBITION
Reported value: -10.6%

The recorded INHIBITION for entry "CNc1oc(-c2ccc(OC)c(S(=O)(=O)N(C)C)c2)nc1C#N" equals 8.46%

The recorded INHIBITION for entry "Cc1nn(C)cc1S(=O)(=O)N(CCc1ccccc1)Cc1ccn(C)n1" equals 26.75%

The recorded INHIBITION for entry "Cc1noc([C@]23COC[C@H]2CN(C(=O)COC2CCCC2)C3)n1" equals -5.89%

The recorded INHIBITION for entry O=C(NCCCn1ccnc1)NCC(c1ccco1)N1CCCCC1 (stereo unspecified) equals -67.3%

The recorded INHIBITION for entry "CCOc1ncccc1NC(=O)NC1CCN(C(C)=O)CC1" equals 5.7%

The recorded INHIBITION for entry CC(C)c1nc(C2CCCN2C(=O)c2ccc(C#N)cn2)no1 (stereo unspecified) equals 22.9%

###

- Test system: Plasmodium berghei
- Protocol description: Screen against P. berghei liver stage (PbLuc), transformed with Luciferase, at 10uM
- Type: functional, HepG2
- Details: tested at 10 uM
The campaign covered roughly 69,000 compounds. About 8,600 (12%) showed an effect of 50% or more. For the sample, strong results were picked, then their nearest neighbours and some compounds at random.
Attribute measured: INHIBITION
A complete answer gives the number followed by the unit.

Example cases with answers are listed next.
Compound: Cc1cc(C(=O)N2CCN(c3ccncc3Cl)CC2)n(C)n1
Measurement target: Plasmodium berghei
INHIBITION: 10.3%
//
Compound: CCCc1nnc(NC(=O)N2CCCC(NC(C)=O)C2)s1 (centres undefined)
Measurement target: Plasmodium berghei
INHIBITION: 17%
//
Compound: CC(=O)NS(=O)(=O)c1ccc(F)c(C(F)(F)F)c1
Measurement target: Plasmodium berghei
INHIBITION: 54.7%
//
Compound: COc1ccc2cc(C3CN(C(=O)CN4CCCC4)CCO3)ccc2c1 (centres undefined)
Measurement target: Plasmodium berghei
INHIBITION: 64.7%

The recorded INHIBITION for entry CC(=O)NC1CCCN(C(=O)NCc2cc[nH]n2)C1 (centres undefined) equals 31.9%

The recorded INHIBITION for entry "COCc1cc(N(C)CCc2c(C)n[nH]c2C)ncn1" equals 26.7%

The recorded INHIBITION for entry CC(Sc1n[nH]c(-c2ccc3c(c2)CCC3)n1)C(N)=O (centres undefined) equals -56.1%

The recorded INHIBITION for entry "CC(C)C(=O)NS(=O)(=O)c1ccc(F)c(C(F)(F)F)c1" equals 0.825%

The recorded INHIBITION for entry CC(C)N1CCc2ncn(C)c2C1C(=O)N1CCOCC1 (centres undefined) equals 29%

The recorded INHIBITION for entry "CSc1nccn1-c1cccc(C(=O)NCCC(=O)NC(C)C)c1" equals 15.5%

The recorded INHIBITION for entry CCC(CN1CCOCC1)NC(=O)Cc1c(C)[nH]c2cc(C)cc(C)c12 (centres undefined) equals 6.32%

The recorded INHIBITION for entry CNC(=O)NC(=O)CCN1CCOC(c2ccc(Br)cc2)C1 (centres undefined) equals -65.1%

The recorded INHIBITION for entry Cc1nc(CN2C(=O)COC3(CCN(C(N)=O)CC3)C2C)cs1 (centres undefined) equals -10.3%

The recorded INHIBITION for entry CN(C)CC(O)Cn1cc(NCc2ccc(Br)cc2)cn1 (centres undefined) equals 33.1%

The recorded INHIBITION for entry COc1ccc2cc(C3CN(C(=O)C4CCOCC4)CCO3)ccc2c1 (centres undefined) equals 66.8%

The recorded INHIBITION for entry CCCC1(CO)CCCN(Cc2nccs2)C1 (centres undefined) equals 81.6%

The recorded INHIBITION for entry "CCc1c(C(=O)N2CCN(CC(N)=O)CC2)cnn1C(C)(C)C" equals 53.8%

The recorded INHIBITION for entry CN1CCCC(NC(=O)c2ccc(C(=O)c3cc[nH]c3)cc2)C1 (centres undefined) equals 44.2%

The recorded INHIBITION for entry CNc1nc(C(=O)N2CCC3(CCCN(CCOC)C3=O)C2)cs1 (centres undefined) equals 36.2%

The recorded INHIBITION for entry CC(C)C(CNC(=O)Nc1cn[nH]c1)N1CCOCC1 (centres undefined) equals 7.67%

The recorded INHIBITION for entry CNC(=O)CN1CCC(c2cc(OC)cc(OC)c2)C1 (centres undefined) equals 45.1%

The recorded INHIBITION for entry CCOC1CCCN(C(=O)c2cnc3c(cnn3C3CCCC3)c2)C1 (centres undefined) equals 24%

###

- System: Plasmodium berghei
- Protocol description: Screen against P. berghei liver stage (PbLuc), transformed with Luciferase, at 10uM
- Type: functional, HepG2
- Details: tested at 10 uM
Screen size: about 69,000 compounds; about 8,600 (12%) showed an effect of 50% or more. The list comes from a sample in which strong results are over-represented; it also holds close analogues and randomly drawn compounds.
The entries below are paired with their reported INHIBITION.
Provide only the numeric value, understood in %.

Example cases with answers are listed next.
Compound: O=C(CNc1cc(-c2ccccc2)nc2ccnn12)NC1CC1
Measurement target: Plasmodium berghei
INHIBITION (%): -35
--
Compound: CO[C@H]1CN(Cc2ccc(F)c(F)c2)C[C@@]12CCCO2
Measurement target: Plasmodium berghei
INHIBITION (%): 35.2
--
Compound: CC(=O)NC1CCCN(Cc2ccn(C)c(=O)c2)C1 (configuration not stated)
Measurement target: Plasmodium berghei
INHIBITION (%): -4.4825
--
Compound: O=S1(=O)CCC(CNc2cc(-c3ccccc3)nc3ccnn23)C1 (configuration not stated)
Measurement target: Plasmodium berghei
INHIBITION (%): 93.6
--
Compound: CN1CCN(CCOc2ccc(NC(=O)c3ccc[nH]3)cc2)CC1
Measurement target: Plasmodium berghei
INHIBITION (%): -23.5

The recorded INHIBITION for entry CC(O)CN1CCN(C(=O)c2cc3ccccc3n2C)CC1 (configuration not stated) equals 66.8

The recorded INHIBITION for entry CC(O)CN1CCN(C(=O)c2ccc3c(c2)COC3)CC1 (configuration not stated) equals 60.5

The recorded INHIBITION for entry "Cn1ccnc1CNCCNc1ncc(Cl)cc1Cl" equals 1.51

The recorded INHIBITION for entry CCC(O)CN1CCN(C(=O)c2ccc3c(c2)COC3)CC1 (configuration not stated) equals -9.37

###

The entries below are paired with their reported INHIBITION.
- Tested on: Plasmodium berghei
- Protocol description: Screen against P. berghei liver stage (PbLuc), transformed with Luciferase, at 10uM
- Assay type: functional, HepG2
- Details: tested at 10 uM
The campaign covered roughly 69,000 compounds. About 8,600 (12%) showed an effect of 50% or more. The list comes from a sample in which strong results are over-represented; it also holds close analogues and randomly drawn compounds.

Compound: Cc1ncc(C(=O)NC2CCc3nccn3C2)c(C(C)C)n1 (stereo not drawn)
Reported value: 11.6%
//
Compound: CN1CCCC1c1ccnc2nccn12 (stereo not drawn)
Reported value: 19.9%
//
Compound: CCC1CN(CC(=O)NCCOC)CCO1 (stereo not drawn)
Reported value: -22.3%
//
Compound: CCC1CN(CC(=O)NCC(C)C)CCO1 (stereo not drawn)
Reported value: 30.9%
//
Compound: CC(C)n1cnnc1CNC(=O)c1cnc2ccccc2n1
Reported value: -4.73%
//
Compound: Cc1ccnc(OC[C@]23COC[C@H]2CN(C(=O)Cc2ccsc2)C3)n1
Reported value: -39.9%
//
Compound: COCCOc1ncccc1NCc1nc2ccccc2n1C
Reported value: -16%
//
Compound: O=C(O)c1ccccc1-c1ccc(CN2CCC(CO)C2)cn1 (stereo not drawn)
Reported value: 33.2%

The recorded INHIBITION for entry CCC1CN(CC(=O)NC(C)C)CCO1 (stereo not drawn) equals -8.22%

The recorded INHIBITION for entry "Cc1ccnc(NCC2(N(C)C)CCOCC2)n1" equals -24%

The recorded INHIBITION for entry CCC1CN(CC(=O)NCCC#N)CCO1 (stereo not drawn) equals 52.6%

The recorded INHIBITION for entry "OCC1(NCc2cccc(-n3cccn3)c2)CCOCC1" equals 43.4%

The recorded INHIBITION for entry "Cc1ccc(CNS(=O)(=O)C=c2[nH]c(=O)n3cccc3c2=O)cc1" equals 0%
